- method-summary: Cytotoxicity against mouse RAW264.7 cells assessed as cell proliferation rate at 1 uM after 24 hrs by MTS assay relative to control
- Format: toxicity
- test-context: read-out: Activity
measurement-name: viability at 24 h, 1 µM (%)

INSERT INTO measurements (smiles_entry, measurement_name, measurement) VALUES
  ('Oc1cc(O)cc(CCc2ccc3c(c2)OCO3)c1', 'viability at 24 h, 1 µM', 96.8),
  ('Oc1cc(O)cc(CCCc2ccc3c(c2)OCO3)c1', 'viability at 24 h, 1 µM', 116),
  ('COc1ccc(CCCc2ccc(O)c(O)c2O)cc1OC', 'viability at 24 h, 1 µM', 110),
  ('COc1cc(CCCc2cc(OC)c(OC)cc2O)ccc1O', 'viability at 24 h, 1 µM', 135),
  ('COc1cc(CCc2cc(OC)c(OC)cc2O)ccc1O', 'viability at 24 h, 1 µM', 120),
  ('COc1ccc(CCc2ccc(O)c(O)c2OC)cc1OC', 'viability at 24 h, 1 µM', 106),
  ('COc1ccc(CCc2ccc(O)c(O)c2O)cc1OC', 'viability at 24 h, 1 µM', 114),
  ('COc1cc(CCCc2cc(OC)c(O)c(OC)c2)ccc1O', 'viability at 24 h, 1 µM', 98.4),
  ('COc1ccc(CCCc2ccc(O)c(O)c2OC)cc1OC', 'viability at 24 h, 1 µM', 118),
  ('CNC(=N)NCCC[C@H](N)C(=O)O', 'viability at 24 h, 1 µM', 100),
  ('COc1cc(CCc2cc(OC)c(O)c(OC)c2)ccc1O', 'viability at 24 h, 1 µM', 143);

Origin of measurements: ChEMBL document CHEMBL3864155
